molecular target: Insulin-like growth factor 1 receptor (Homo sapiens); settings: at 1 µM;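 further: each value is a mean percent inhibition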
Documented inhibition across a set of compounds
Return type: number; implicit unit %.

given.smiles: COc1cc(Nc2ncc(-c3ccccc3)o2)cc(OC)c1
unit.annotation: %
reported.value: 4.18
//
given.smiles: COC(=O)Nc1nc2cc(Oc3ccc(NC(=O)Nc4ccccc4)cc3)ccc2[nH]1
unit.annotation: %
reported.value: -0.2
//
given.smiles: COc1cccc(Nc2nccc(-c3cnn4ncccc34)n2)c1
unit.annotation: %
reported.value: 52.4

Input: Query for Insulin-like growth factor 1 receptor (Homo sapiens): what inhibition does the record show for `CCCNc1cccc(-n2ncc3c(N/N=C/c4ccncc4)ncnc32)c1` ?
Output: -0.01

Input: // repeat for `COc1ccc(Nc2ncc(-c3ccccc3)o2)cc1OC` and report
Output: 2.03

Input: // repeat for `Cc1nnc(-c2cccc(-c3ccc(C(=O)NCC4CC4)cc3)c2)o1` and report
Output: 6.53

Input: // repeat for `Cc1cc(O)cc(C)c1/C=C/c1cncc(C(=O)OC(C)(C)C)c1` and report
Output: 2.33

Input: // repeat for `OCCCNc1nccc(-c2c(-c3ccc(F)cc3)nn3cc(C(F)(F)F)ccc23)n1` and report
Output: 1.03

Input: // repeat for `N#Cc1ccc2c(-c3ccnc(NC4CC4)n3)c(-c3ccc(F)cc3)nn2c1` and report
Output: -2.63

Input: // repeat for `O=C(O[C@H]1CN[C@H](C#Cc2cc3ncnc(Nc4ccc5c(cnn5Cc5ccccc5)c4)c3s2)C1)N1CCOCC1` and report
Output: -0.43

---

molecular target: Tyrosine-protein kinase BTK (Homo sapiens) (UniProt Q06187); settings: at 0.1 µM;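 further: values are averaged percent inhibition of BTK enzyme activity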
Sequence (Q06187 whole entry): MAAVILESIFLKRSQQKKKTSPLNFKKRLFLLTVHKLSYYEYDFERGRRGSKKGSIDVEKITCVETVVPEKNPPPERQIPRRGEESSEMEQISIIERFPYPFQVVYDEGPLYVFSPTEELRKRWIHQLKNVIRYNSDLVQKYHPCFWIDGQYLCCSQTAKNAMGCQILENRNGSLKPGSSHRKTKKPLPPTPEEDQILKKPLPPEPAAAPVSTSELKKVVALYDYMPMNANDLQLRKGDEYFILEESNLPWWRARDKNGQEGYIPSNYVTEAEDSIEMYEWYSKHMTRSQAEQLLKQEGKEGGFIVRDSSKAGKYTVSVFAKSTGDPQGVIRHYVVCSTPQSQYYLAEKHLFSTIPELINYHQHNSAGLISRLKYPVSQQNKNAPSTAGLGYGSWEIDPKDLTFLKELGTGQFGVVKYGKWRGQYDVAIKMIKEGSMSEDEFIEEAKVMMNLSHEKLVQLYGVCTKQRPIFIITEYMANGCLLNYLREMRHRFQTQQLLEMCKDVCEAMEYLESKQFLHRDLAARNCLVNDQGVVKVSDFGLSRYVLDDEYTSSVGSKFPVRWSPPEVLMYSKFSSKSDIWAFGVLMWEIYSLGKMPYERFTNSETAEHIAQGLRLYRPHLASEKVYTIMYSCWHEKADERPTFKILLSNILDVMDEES
attribute.measured: inhibition (%)
Return type: number; implicit unit %.

Look over these answered cases.
given.smiles: NS(=O)(=O)c1cccc(N/C=C2\C(=O)Nc3ccccc32)c1
unit.annotation: %
inhibition: 0.73
//
given.smiles: COc1c(C(N)=O)cc(-c2ccc(Cl)cc2)cc1-c1ccc(S(N)(=O)=O)cc1
unit.annotation: %
inhibition: -1.27

# next molecule below
Input: // query inhibition value for entry `CCn1c(-c2nonc2N)nc2cncc(C(=O)NCCNC)c21`
Output: -1.55

---

biological target: Tyrosine-protein kinase Fgr (Homo sapiens) (UniProt P09769); conditions: at 0.1 µM;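 further: reported values are mean percent inhibition of FGR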
Sequence (P09769 2-529 limits assumed): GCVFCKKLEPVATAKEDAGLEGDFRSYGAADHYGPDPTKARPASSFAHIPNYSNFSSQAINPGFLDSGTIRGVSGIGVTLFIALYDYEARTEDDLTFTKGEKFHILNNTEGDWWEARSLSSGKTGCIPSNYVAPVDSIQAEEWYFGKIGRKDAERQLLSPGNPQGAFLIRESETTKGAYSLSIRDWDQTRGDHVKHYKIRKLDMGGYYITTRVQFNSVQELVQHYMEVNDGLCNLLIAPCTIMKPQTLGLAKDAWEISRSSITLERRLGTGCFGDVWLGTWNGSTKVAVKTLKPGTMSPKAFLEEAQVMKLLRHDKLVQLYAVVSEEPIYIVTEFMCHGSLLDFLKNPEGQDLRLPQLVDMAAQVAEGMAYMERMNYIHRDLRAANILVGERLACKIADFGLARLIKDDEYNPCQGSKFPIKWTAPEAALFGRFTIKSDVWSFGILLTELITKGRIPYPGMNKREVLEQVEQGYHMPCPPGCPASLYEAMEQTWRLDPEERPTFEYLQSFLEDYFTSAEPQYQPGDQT
attribute.measured: inhibition (%)
Return type: number; implicit unit %.

Look over these answered cases.
given.smiles: Cc1ccc(-c2cc3c(NC(=O)C4CC4)ncnc3o2)cc1
unit.annotation: %
inhibition: 2.06
--
given.smiles: CS(=O)(=O)CCNCc1ccc(-c2ccc3ncnc(Nc4ccc(OCc5ccccc5)cc4)c3c2)o1
unit.annotation: %
inhibition: 5.33

Input: Query for Tyrosine-protein kinase Fgr (Homo sapiens) (UniProt P09769): what inhibition does the record show for `CNC(=O)c1cncc(/C=C/c2ccccc2C)c1` ?
Output: 5.41

Input: // repeat for `COc1ccc(-c2nn3ncccc3c2-c2ccnc(Nc3ccc(F)c(F)c3)n2)cc1` and report
Output: 20.4

Input: // repeat for `COc1cc(N2CCN(C(C)C)CC2)ccc1Nc1nc(Nc2cccc3ncccc23)c2cc[nH]c2n1` and report
Output: -0.04

---

Documented inhibition across a set of compounds
test system: Epidermal growth factor receptor (Homo sapiens), P00533 [L858R]; conditions: at 1 µM
Sequence (P00533 whole entry L858R): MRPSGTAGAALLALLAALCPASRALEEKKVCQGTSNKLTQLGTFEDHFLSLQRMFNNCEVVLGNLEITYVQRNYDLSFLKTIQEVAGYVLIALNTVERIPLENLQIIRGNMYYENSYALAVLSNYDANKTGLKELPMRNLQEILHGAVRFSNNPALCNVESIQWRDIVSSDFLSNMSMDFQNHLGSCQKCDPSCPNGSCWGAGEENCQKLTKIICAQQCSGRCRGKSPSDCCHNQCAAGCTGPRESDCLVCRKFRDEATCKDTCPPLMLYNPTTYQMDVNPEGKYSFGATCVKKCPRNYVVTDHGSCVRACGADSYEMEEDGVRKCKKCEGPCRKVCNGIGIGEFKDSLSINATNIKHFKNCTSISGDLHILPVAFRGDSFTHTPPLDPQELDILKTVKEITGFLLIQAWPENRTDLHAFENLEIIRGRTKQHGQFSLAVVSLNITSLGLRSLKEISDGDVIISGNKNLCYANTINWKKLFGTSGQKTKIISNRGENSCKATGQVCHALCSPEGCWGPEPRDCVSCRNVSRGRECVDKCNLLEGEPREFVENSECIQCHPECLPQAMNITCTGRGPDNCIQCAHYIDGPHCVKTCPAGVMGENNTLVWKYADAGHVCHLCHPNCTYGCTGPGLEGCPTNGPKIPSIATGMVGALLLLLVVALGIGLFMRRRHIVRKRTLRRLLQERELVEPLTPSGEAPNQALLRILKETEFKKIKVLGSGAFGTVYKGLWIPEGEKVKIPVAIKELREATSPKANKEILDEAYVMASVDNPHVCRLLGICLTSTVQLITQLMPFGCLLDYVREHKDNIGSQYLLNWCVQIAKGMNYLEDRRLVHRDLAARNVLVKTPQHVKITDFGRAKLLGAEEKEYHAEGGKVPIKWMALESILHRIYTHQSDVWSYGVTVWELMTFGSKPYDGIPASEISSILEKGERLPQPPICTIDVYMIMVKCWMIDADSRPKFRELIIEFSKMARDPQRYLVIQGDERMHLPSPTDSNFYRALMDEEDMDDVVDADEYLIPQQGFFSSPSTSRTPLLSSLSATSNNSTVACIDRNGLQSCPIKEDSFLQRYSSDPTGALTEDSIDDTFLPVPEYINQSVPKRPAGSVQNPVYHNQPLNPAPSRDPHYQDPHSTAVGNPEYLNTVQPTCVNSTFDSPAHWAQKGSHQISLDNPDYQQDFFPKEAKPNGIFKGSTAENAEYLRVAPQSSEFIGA
Return type: number; implicit unit %.

Look over these answered cases.
given.smiles: COc1cccc(Nc2nccc(-c3cnn4ncccc34)n2)c1
unit.annotation: %
inhibition: 9.34

given.smiles: OCCCNc1nccc(-c2c(-c3ccc(F)cc3)nn3cc(C(F)(F)F)ccc23)n1
unit.annotation: %
inhibition: 24.6

given.smiles: CN(C)CCNC(=O)Nc1ccc(N(C)c2ccnc(Nc3ccc(CS(C)(=O)=O)cc3)n2)cc1
unit.annotation: %
inhibition: 3.5

given.smiles: CS(=O)(=O)CCNCc1ccc(-c2ccc3ncnc(Nc4ccc(OCc5cccc(C(F)(F)F)c5)cc4)c3c2)o1
unit.annotation: %
inhibition: 26.7

given.smiles: CCS(=O)(=O)c1ccc(OC)c(Nc2ncc(-c3cccc(C(C)=O)c3)o2)c1
unit.annotation: %
inhibition: 16.6

Input: // query inhibition value for entry `COC(=O)Nc1nc2ccc(Oc3ccc(NC(=O)Nc4cc(C(F)(F)F)ccc4F)cc3)cc2s1`
Output: 2.24

Input: // repeat for `NS(=O)(=O)c1ccc(N/N=C2\C(=O)Nc3cccc(CCc4ccncc4)c32)cc1` and report
Output: 3.04

Input: // repeat for `Fc1cccc(COc2ccc(Nc3ncncc3C#Cc3ccccc3)cc2Cl)c1` and report
Output: 21.7

Input: // repeat for `COc1ccc2ncn(-c3cc(O[C@H](C)c4ccccc4C(F)(F)F)c(C(N)=O)s3)c2c1` and report
Output: 1.03
